Reference for the values: patent US20230263822A1

Reported hemoglobin values for the following substances.
experiment: Hematology assays in cynomolgus monkeys (Example 45); format: in vivo; conditions: day 36; escalating dose regimen
A number alone suffices; assume g/dL.

substance	hemoglobin, g/dL
ISIS 416838: MOE gapmer, nucleobases 1018 to 1042 of SEQ ID NO: 1 (Table 6) (antisense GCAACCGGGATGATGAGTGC; MOE gapmer, wing and gap sizes not given here)	12.8
ISIS 416864: MOE gapmer, nucleobases 1275 to 1318 of SEQ ID NO: 1 (Table 8) (antisense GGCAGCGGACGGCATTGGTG; MOE gapmer, wing and gap sizes not given here)	12.5

Proceed to the following item.
Which value of hemoglobin has been reported for ISIS 416850: MOE gapmer, nucleobases 1275 to 1318 of SEQ ID NO: 1 (Table 8) (antisense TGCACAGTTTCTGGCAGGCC; MOE gapmer, wing and gap sizes not given here) in the records? 12.2
